The reported measurements were obtained from ChEMBL document CHEMBL3988442.

- Test system: Mycobacterium tuberculosis
- METHOD NOTES: Cornell - Phenotypic assay to identify agents that inhibit growth of Mycobacterium tuberculosis
- Assay type: functional
- Design: scale not given: direction of the effect not stated beside the values
- APPLIED CONDITIONS: 10 mM as filed; unlikely as a test dose
In all, about 53,000 compounds went through this assay and about 900 (1.7%) showed an effect of 50% or more. This is one part of a sample in which strong results are shown more often than they occur.
MEASURED METRIC: Percent Effect (%)

• C[C@H](NC(=O)N1CCN(c2ccc(Cl)cc2)CC1)C(=O)N1CCSCC1 = 11.26
• O=C(Nc1cccs1)N1CC(c2nc(C3CC3)no2)C1 = 107.8
• CC1CC(=O)c2cc(C(=O)N3CCN(C)CC3)c(=O)[nH]c2C1 (centres undefined) = 4.231
• CCc1c(C)sc(NC(=O)CN2CCOCC2)c1C(=O)OC = 13.88
• N#Cc1cn[nH]c1NCc1cc(Br)ccc1O = -2.668
• CN(C(=O)NC1CC1)C1CCN(c2ccc(Cl)cc2)CC1 = 17.37
• CC(C)C(NC(=O)N1CCN(c2ccc(Cl)cc2)CC1)C(=O)NC1CC1 (centres undefined) = 93.48
• CC(C)NC(=O)[C@H](C)NC(=O)N1CCN(c2ccc(Cl)cc2)CC1 = -2.997
• Fc1ccccc1CN1CCCN(c2ncnc3[nH]ccc23)CC1 = 14.79
• COc1ccc(C2CN(c3cc(C)ncn3)CCN2C(C)=O)cc1 (centres undefined) = -53.77
• CCOC(=O)c1c(NC(=O)C2CCN(C(C)=O)CC2)sc(C)c1CC = 0.6351
• N#Cc1cn[nH]c1NCc1cc(Cl)cc(Cl)c1O = 4.06
• Cc1cc2cccc(NC(=O)N3CCC(N4CCSCC4)CC3)c2o1 = 26.32
• COc1ccc(OCc2cc(C(=O)N3CCOCC3)n[nH]2)c(Cl)c1 = 19.45
• CCc1c(C)sc(NC(=O)CN2CCN(CC)CC2)c1C(=O)OC = 85.25
• c1cc(CN2CCCN(c3ccc4cc[nH]c4n3)CC2)ccn1 = -9.703
• COc1ccc(OCc2cc(C(=O)N3C[C@@H](C)O[C@@H](C)C3)n[nH]2)c(Cl)c1 = 4.963
• CC(C)NC(=O)C(NC(=O)N1CCN(c2ccc(Cl)cc2)CC1)C(C)C (centres undefined) = 76.86
• CCOC(=O)N1CCNC(c2cccs2)C1 (centres undefined) = -4.593
• COc1ccc(OCc2cc(C(=O)N3CCSCC3)n[nH]2)c(Cl)c1 = 54.8
• CC(C)NC(=O)C(C)NC(=O)N1CCN(c2ccc(Cl)cc2)CC1 (centres undefined) = -27.07
• COCCc1noc(C2CCN(C(=O)Nc3cccs3)CC2)n1 = 17.42
• COC(=O)c1cccc(CN(C)C(C)c2ccccn2)c1 (centres undefined) = 21.51
• O=C(Nc1c(F)cccc1F)N1CC(c2nc(C3CC3)no2)C1 = 10.47

* * *

- Test system: Mycobacterium tuberculosis
- METHOD NOTES: Cornell - Phenotypic assay to identify agents that inhibit growth of Mycobacterium tuberculosis
- Format: functional
- Set-up: scale not given: direction of the effect not stated beside the values
- APPLIED CONDITIONS: 10 mM as filed; unlikely as a test dose
The campaign covered roughly 53,000 compounds. About 900 (1.7%) showed an effect of 50% or more. The sample holds strong results, similar compounds and a random draw of the others, so the mix is not that of the screen.
This section presents compounds with their documented Percent Effect values.
MEASURED METRIC: Percent Effect

- Cc1nn(C)cc1C(=O)Nc1cccc(CN2CCC(CO)CC2)c1: -50.57%
- O=C1CCNc2cc3c(cc2CN1CC1CC1)OCO3: -9.17%
- Cn1nc(Br)c2c(NCCCS(N)(=O)=O)ncnc21: 24.15%
- CCCc1nc(N2CCC(C)CC2)c2c(n1)c(C)nn2CC: 17.45%
- Cc1cc(O)nc(C2CN(CCO)CCO2)n1 (configuration not stated): -14.9%
- CCCc1nc(N2CCN(CC)CC2)c2c(n1)c(C)nn2CC: 19.74%
- CCCc1nc(NCCc2ccccc2)c2c(n1)c(C)nn2CC: 98.38%
- Cc1cc(N(C)CCC(O)c2ccccc2)n2nccc2n1 (configuration not stated): -28.51%
- COc1ccccc1CCN1CCCC(CN(C)Cc2ccc(C)o2)C1 (configuration not stated): 14.72%
- NC1(CN2CCCCC2)CCCCC1: -23.07%
- CS(=O)(=O)N1CCN(C(=O)c2cncs2)CC(C(N)=O)C1 (configuration not stated): 53.86%
- CCOCC(=O)N1CCCn2c(CN3CCOCC3)nnc2C1: 18.04%

* * *

- Test system: Mycobacterium tuberculosis
- METHOD NOTES: Cornell - Phenotypic assay to identify agents that inhibit growth of Mycobacterium tuberculosis
- Assay type: functional
- Parameters: scale not given: direction of the effect not stated beside the values
- APPLIED CONDITIONS: 10 mM as filed; unlikely as a test dose
About 900 (1.7%) of roughly 53,000 compounds showed an effect of 50% or more. What follows is part of a selection rich in strong results, with near analogues and random picks from the rest.
1 means recorded Percent Effect is 20% or above; -1 means it is below 20%.

* Cc1nc(CN2CCc3nc(NC(C)C)nc(C)c3C2)cs1 | 1
* CC(=O)Nc1nc(C2CCN(CC(N)=O)CC2)cs1 | -1
* O=C(c1cnccn1)N1CC(S(=O)(=O)c2ccc(Cl)cc2)C1 | -1
* Cc1occc(=O)c1OCC(=O)N1CCN(c2ccccc2)CC1 | 1
* O=C(NCCc1c[nH]c2ccc(F)cc12)C1(n2cnnn2)CCCCC1 | 1
* Cc1cc(NC(=O)C(C)C)n(-c2nc(C)c(C)c(=O)[nH]2)n1 | 1
* CC(C)c1cc(CN(C)C(=O)CN2CCNC2=O)no1 | -1
* Cc1cnn(CC2CCCN2Cc2coc(-c3cccc(F)c3)n2)c1 (stereo not given) | 1
* CO[C@H]1CCN(Cc2nccs2)C[C@@H]1Cc1ccccc1 | 1
* Cc1nn(C)c(N(C)C)c1CNCC(O)COc1ccccc1.Cl (stereo not given) | 1
* CCC(C)N1CCc2nc(N3CCCC3)nc(NC(C)C)c2C1 (stereo not given) | -1
* OCCN1CCC(c2csc(Nc3cnccn3)n2)CC1 | -1
* Cc1nn(CC(=O)N2CCN(c3ccncc3)CC2)c(C)c1Cl | -1
* c1cnc(N2CCCC(c3csc(Nc4cnccn4)n3)C2)nc1 (stereo not given) | 1
* Cc1nc(Nc2cnccn2)cc(C2CCN(c3ncccn3)C2)n1 (stereo not given) | -1
* CC(=O)N1CCN(c2cc(CCNC(=O)C(C)C)nc(C3CC3)n2)CC1 | -1
* CNc1cncc(C2CCCN2C(=O)CCn2ccnc2)n1 (stereo not given) | -1
* O=C(NCCc1c[nH]c2ccccc12)C1(n2cnnn2)CCCCC1 | 1
* Cc1c(-c2nc3cc(S(=O)(=O)N4CCCC4)ccc3n2C)cnn1C | -1
* Fc1cc(Cl)cnc1N1CCCC(c2nccn2Cc2ccccn2)C1 (stereo not given) | -1
* CC(C)Nc1nc(N2CCCC2)nc2c1CN(C(C)C)CC2 | 1
* CC(C)C(=O)N1CCC(c2nc3ccccn3c2NC(C)(C)C)CC1 | 1
* Cc1nc(-n2nc(C3CC3)cc2NC(=O)C(C)C)[nH]c(=O)c1C | 1
* Cc1cccc(S(=O)(=O)N2C[C@@H]3C[C@@H](c4nnc(C)[nH]4)O[C@@H]3C2)c1 | -1
* COCCNC(=O)CCc1c(C)nn(-c2nc(C)c(C)c(=O)[nH]2)c1C | 1
* CC(C)Nc1nc(N2CCCC2)nc2c1CN(S(C)(=O)=O)CC2 | -1
* Cc1ccc(C(O)CNCc2c(C(C)C)nn(C)c2N(C)C)cc1 (stereo not given) | 1
* COc1ccccc1NC(=O)c1cnc(C2CCN(C(C)=O)C2)nc1C (stereo not given) | 1
* Cc1noc(C)c1-c1ccc(C2CCCN2C(=O)c2cnn(C)c2)nc1 (stereo not given) | -1
* CN(C)CCNC(=O)c1ccn(-c2ccc3ccccn23)n1.O=C(O)C(F)(F)F | -1
* CC(C)c1nccc(C2CC(=O)Nc3n[nH]c(C4CCC4)c32)n1 (stereo not given) | 1
* CN(C)c1ncc(-c2ccncc2)c(CCNC(=O)C2CC2)n1 | 1
* O=C(NCCc1cccc(F)c1)C1(n2cnnn2)CCCCC1 | -1
* CO[C@@H]1CCN(Cc2nccs2)C[C@@H]1Cc1ccccc1.O=C(O)C(F)(F)F | -1
* CO[C@@H]1CCN(Cc2nccs2)C[C@@H]1Cc1cccc(C)c1.O=C(O)C(F)(F)F | 1
* O=C(O)C(F)(F)F.O=C1COC2(CCN(Cc3cccs3)CC2)CN1c1cncnc1 | -1
* COc1ccc(N2CCN(C(=O)COc3c(C)occc3=O)CC2)cc1 | 1
* CCC(=O)c1ccccc1NN1c2ccccc2C(=O)C1(C)OC (stereo not given) | -1
* Cc1cc(C)n(-c2cncc(NCCNC(=O)C(C)C)n2)n1 | -1
* COc1ccc(N2CCN(C(=O)Cn3nc(C)c(Cl)c3C)CC2)cc1 | 1
* CC(=O)Nc1cc(C2CC2)nn1-c1nc(C)c(C)c(=O)[nH]1 | -1
* CC(C)Nc1nc(N2CCCC2)nc2c1CN(C)CC2 | 1
* CCN1CCc2nc(N3CCOCC3)nc(NC(C)C)c2C1 | -1
* Cc1ccc(N(C)[C@@H]2CC[C@@H]3CN(C(=O)C4CCOCC4)C[C@@H]32)nn1 | -1
* CC(C)c1nn(C)c(N(C)C)c1CNCC(O)c1ccccc1 (stereo not given) | 1
